The reported measurements were obtained from ChEMBL document CHEMBL1143301.

The entries below come with measured EC50 values attached.
- Test system: T-24
- test method notes: Induction of histone H3 acetylation in human T24 cells
- Type: functional, cell-based
measured parameter: EC50

1. O=C(NO)c1ccc(CN2c3ccccc3NC(=O)[C@H]2Cc2cccs2)cc1 :: 1.22 µM
2. CC(C)(C)OC(=O)NCCCC[C@@H]1C(=O)Nc2ccccc2N1Cc1ccc(C(=O)NO)cc1 :: 6.75 µM
3. O=C1CN(Cc2ccc(C(=O)NO)cc2)c2ccccc2N1 :: 3.58 µM
4. O=C(NO)c1ccc(CN2c3ccccc3NC(=O)[C@H]2Cc2ccccc2)cc1 :: 0.52 µM
5. O=C(NO)c1ccc(CN2C(=O)CNC(=O)[C@H]2Cc2cccs2)cc1 :: 9 µM

====

Here, each record is paired with measured Ratio IC50 data.
- Organism: Homo sapiens
- test method notes: Selectivity ratio of IC50 for human recombinant histone deacetylase 8 to IC50 for human recombinant histone deacetylase 6
measured parameter: Ratio IC50

1. CC(C)(C)OC(=O)NCCCC[C@@H]1C(=O)Nc2ccccc2N1Cc1ccc(C(=O)NO)cc1 :: 27
2. O=C(NO)c1ccc(CN2C(=O)CNC(=O)[C@H]2Cc2c[nH]c3ccccc23)cc1 :: 11
3. O=C(NO)c1ccc(CN2c3ccccc3NC(=O)[C@@H]2Cc2cccs2)cc1 :: 4
4. O=C1CN(Cc2ccc(C(=O)NO)cc2)c2ccccc2N1 :: 3
5. O=C(NO)c1ccc(CN2c3ccccc3NC(=O)[C@H]2Cc2ccccc2)cc1 :: 53
6. O=C(NO)c1ccc(CN2c3ccccc3NC(=O)[C@H]2Cc2cccs2)cc1 :: 17
7. O=C(NO)c1ccc(CN2c3ccccc3NC(=O)[C@H]2CCc2ccccc2)cc1 :: 49
8. O=C(NO)c1ccc(CN2c3ccccc3NC(=O)[C@@H]2Cc2ccccc2)cc1 :: 1
9. O=C(NO)c1ccc(CN2c3ccccc3NC(=O)[C@H]2Cc2ccc(F)c(F)c2)cc1 :: 10
10. O=C(NO)c1ccc(CN2C(=O)CNC(=O)[C@H]2Cc2cccs2)cc1 :: 3

====

Collected pEC50 values appear next to each entry.
- Test system: T-24
- test method notes: Induction of histone H3 acetylation in human T24 cells
- Type: functional, cell-based
pEC50: −log10 of the molar value.
measured parameter: pEC50

1) CC(/C=C/C(=O)NO)=C\[C@@H](C)C(=O)c1ccc(N(C)C)cc1 (racemic) [TRICHOSTATIN] :: 8.00
2) O=C(NO)c1ccc(CN2c3ccccc3NC(=O)[C@@H]2Cc2cccs2)cc1 :: 5.64
3) O=C(NO)c1ccc(CN2C(=O)CNC(=O)[C@H]2Cc2c[nH]c3ccccc23)cc1 :: 4.92
4) CC(C)(C)Oc1ccc(C[C@@H]2C(=O)Nc3ccccc3N2Cc2ccc(C(=O)NO)cc2)cc1 :: 5.56
5) O=C(NO)c1ccc(CN2c3ccccc3NC(=O)[C@@H]2Cc2ccccc2)cc1 :: 5.72
6) O=C(NO)c1ccc(CN2C(=O)CNC(=O)[C@H]2Cc2ccccc2)cc1 :: 4.64

====

Catalogue of IC50 values
- system name: Histone deacetylase 2 (Homo sapiens, UniProt Q92769)
- Sequence (Q92769 whole entry): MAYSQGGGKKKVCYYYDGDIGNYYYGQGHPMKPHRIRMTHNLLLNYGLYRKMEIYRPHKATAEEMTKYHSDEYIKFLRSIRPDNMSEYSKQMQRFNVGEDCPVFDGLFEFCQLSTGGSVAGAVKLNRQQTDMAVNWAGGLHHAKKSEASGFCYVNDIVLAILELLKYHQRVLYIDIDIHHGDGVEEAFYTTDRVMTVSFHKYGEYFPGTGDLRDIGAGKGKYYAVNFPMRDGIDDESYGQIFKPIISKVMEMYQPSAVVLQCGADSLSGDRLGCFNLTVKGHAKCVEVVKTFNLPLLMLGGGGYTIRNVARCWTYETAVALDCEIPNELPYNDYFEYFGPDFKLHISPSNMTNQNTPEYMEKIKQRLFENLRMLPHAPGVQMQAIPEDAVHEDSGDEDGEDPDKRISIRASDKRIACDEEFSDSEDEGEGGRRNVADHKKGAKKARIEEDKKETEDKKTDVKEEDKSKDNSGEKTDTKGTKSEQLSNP
measured parameter: IC50 (nM)

1. O=C(NO)c1ccc(CN2c3ccccc3NC(=O)[C@@H]2Cc2cccs2)cc1 :: 1480
2. O=C(NO)c1ccc(CN2c3ccccc3NC(=O)[C@H]2CCc2ccccc2)cc1 :: 520
3. O=C(NO)c1ccc(CN2c3ccccc3NC(=O)[C@H]2Cc2ccc(O)cc2)cc1 :: 330
4. O=C(NO)c1ccc(CN2c3ccccc3NC(=O)[C@@H]2Cc2ccccc2)cc1 :: 460
5. CC(C)(C)OC(=O)NCCCC[C@@H]1C(=O)Nc2ccccc2N1Cc1ccc(C(=O)NO)cc1 :: 1480
6. O=C(NO)c1ccc(CN2c3ccccc3NC(=O)[C@H]2Cc2cccs2)cc1 :: 870
7. O=C1CN(Cc2ccc(C(=O)NO)cc2)c2ccccc2N1 :: 560
8. O=C(NO)c1ccc(CN2c3ccccc3NC(=O)[C@H]2Cc2ccccc2)cc1 :: 260
9. O=C(NO)c1ccc(CN2C(=O)CNC(=O)[C@H]2Cc2cccs2)cc1 :: 3470

====

- Species: Homo sapiens
- test method notes: Selectivity ratio of IC50 for human recombinant histone deacetylase 2 to IC50 for human recombinant histone deacetylase 6
Label 1 when Ratio IC50 is at or above 30; otherwise label -1.

1. O=C(NO)c1ccc(CN2C(=O)CNC(=O)[C@H]2Cc2ccccc2)cc1 :: 1
2. O=C(NO)c1ccc(CN2C(=O)CNC(=O)[C@H]2Cc2c[nH]c3ccccc23)cc1 :: -1
3. O=C(NO)c1ccc(CN2c3ccccc3NC(=O)[C@H]2Cc2ccc(O)cc2)cc1 :: 1
4. O=C1CN(Cc2ccc(C(=O)NO)cc2)c2ccccc2N1 :: -1
5. CC(C)(C)Oc1ccc(C[C@@H]2C(=O)Nc3ccccc3N2Cc2ccc(C(=O)NO)cc2)cc1 :: -1
6. O=C(NO)c1ccc(CN2c3ccccc3NC(=O)[C@H]2Cc2ccc(F)c(F)c2)cc1 :: -1
7. O=C(NO)c1ccc(CN2c3ccccc3NC(=O)[C@H]2Cc2cccs2)cc1 :: -1
8. O=C(NO)c1ccc(CN2c3ccccc3NC(=O)[C@@H]2Cc2cccs2)cc1 :: -1
9. O=C(NO)c1ccc(CN2c3ccccc3NC(=O)[C@H]2Cc2ccccc2)cc1 :: -1
10. O=C(NO)c1ccc(CN2C(=O)CNC(=O)[C@H]2Cc2cccs2)cc1 :: -1
11. O=C(NO)c1ccc(CN2c3ccccc3NC(=O)[C@H]2CCc2ccccc2)cc1 :: 1
12. CC(C)(C)OC(=O)NCCCC[C@@H]1C(=O)Nc2ccccc2N1Cc1ccc(C(=O)NO)cc1 :: 1
13. O=C(NO)c1ccc(CN2c3ccccc3NC(=O)[C@@H]2Cc2ccccc2)cc1 :: -1

====

Consider compounds characterized by their IC50 with UniProt Q9UBN7.
Sequence (Q9UBN7 whole entry): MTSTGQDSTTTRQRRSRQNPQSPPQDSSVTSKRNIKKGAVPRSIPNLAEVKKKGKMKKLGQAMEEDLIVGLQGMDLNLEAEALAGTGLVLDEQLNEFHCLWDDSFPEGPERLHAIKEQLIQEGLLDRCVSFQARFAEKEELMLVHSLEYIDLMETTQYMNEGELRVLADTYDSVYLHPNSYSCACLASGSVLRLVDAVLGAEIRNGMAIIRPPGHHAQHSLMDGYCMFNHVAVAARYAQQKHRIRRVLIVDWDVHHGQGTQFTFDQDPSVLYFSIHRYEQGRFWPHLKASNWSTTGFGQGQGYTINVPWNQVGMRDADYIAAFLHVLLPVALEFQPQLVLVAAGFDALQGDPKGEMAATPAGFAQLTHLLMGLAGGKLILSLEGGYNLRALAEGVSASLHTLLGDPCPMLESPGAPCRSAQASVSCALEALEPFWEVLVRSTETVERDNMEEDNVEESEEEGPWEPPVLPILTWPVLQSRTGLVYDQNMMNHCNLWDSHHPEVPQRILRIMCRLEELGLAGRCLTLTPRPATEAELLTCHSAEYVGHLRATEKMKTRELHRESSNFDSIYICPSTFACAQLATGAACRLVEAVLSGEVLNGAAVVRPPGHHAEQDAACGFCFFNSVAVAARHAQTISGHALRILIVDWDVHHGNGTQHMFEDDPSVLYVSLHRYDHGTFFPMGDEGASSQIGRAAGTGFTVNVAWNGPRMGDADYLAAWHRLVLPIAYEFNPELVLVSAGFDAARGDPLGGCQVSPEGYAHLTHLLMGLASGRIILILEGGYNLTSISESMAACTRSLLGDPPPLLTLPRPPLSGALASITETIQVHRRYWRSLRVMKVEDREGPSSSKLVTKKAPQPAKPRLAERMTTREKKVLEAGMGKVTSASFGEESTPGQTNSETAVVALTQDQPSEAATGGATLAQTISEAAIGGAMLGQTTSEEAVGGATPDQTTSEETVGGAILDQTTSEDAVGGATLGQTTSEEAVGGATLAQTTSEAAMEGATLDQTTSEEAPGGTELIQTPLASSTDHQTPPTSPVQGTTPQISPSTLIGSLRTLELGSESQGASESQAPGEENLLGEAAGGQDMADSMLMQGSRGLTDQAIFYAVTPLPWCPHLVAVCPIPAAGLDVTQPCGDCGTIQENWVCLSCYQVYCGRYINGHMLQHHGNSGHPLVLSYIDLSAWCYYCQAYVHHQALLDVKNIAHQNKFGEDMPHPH
measured parameter: IC50 (nM)

1. O=C(NO)c1ccc(CN2c3ccccc3NC(=O)[C@H]2Cc2cccs2)cc1 :: 40
2. CC(C)(C)OC(=O)NCCCC[C@@H]1C(=O)Nc2ccccc2N1Cc1ccc(C(=O)NO)cc1 :: 40
3. O=C(NO)c1ccc(CN2C(=O)CNC(=O)[C@H]2Cc2cccs2)cc1 :: 160
4. O=C1CN(Cc2ccc(C(=O)NO)cc2)c2ccccc2N1 :: 150
5. O=C(NO)c1ccc(CN2c3ccccc3NC(=O)[C@@H]2Cc2cccs2)cc1 :: 310

====

- Species on record: Homo sapiens
- test method notes: Selectivity ratio of IC50 for human recombinant histone deacetylase 8 to IC50 for human recombinant histone deacetylase 6
measured parameter: Ratio IC50

1) CC(C)(C)Oc1ccc(C[C@@H]2C(=O)Nc3ccccc3N2Cc2ccc(C(=O)NO)cc2)cc1 :: 5
2) O=C(NO)c1ccc(CN2c3ccccc3NC(=O)[C@H]2Cc2ccc(O)cc2)cc1 :: 91
3) O=C(NO)c1ccc(CN2C(=O)CNC(=O)[C@H]2Cc2ccccc2)cc1 :: 14
